Each entry below carries its reported pIC50.
Target: UniProt P30551
Sequence (P30551 whole entry): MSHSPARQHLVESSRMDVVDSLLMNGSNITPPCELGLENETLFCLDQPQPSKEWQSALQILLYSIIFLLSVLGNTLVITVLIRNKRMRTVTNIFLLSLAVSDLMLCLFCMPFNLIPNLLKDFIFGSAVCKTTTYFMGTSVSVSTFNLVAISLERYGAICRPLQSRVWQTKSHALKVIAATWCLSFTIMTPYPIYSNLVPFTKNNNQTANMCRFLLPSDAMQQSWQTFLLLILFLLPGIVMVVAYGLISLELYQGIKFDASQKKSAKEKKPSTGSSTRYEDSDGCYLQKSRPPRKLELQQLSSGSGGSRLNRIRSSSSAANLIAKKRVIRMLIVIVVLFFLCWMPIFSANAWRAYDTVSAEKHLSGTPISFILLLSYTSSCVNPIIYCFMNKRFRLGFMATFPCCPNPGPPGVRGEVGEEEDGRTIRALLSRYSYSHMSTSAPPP
pIC50: −log10 of the molar value.
metric name: pIC50

1. CN1C(=O)C(NC(=O)c2ccc(Br)cc2)N=C(c2ccccc2F)c2ccccc21 (stereo not drawn) : 9.10
2. CN1C(=O)[C@@H](NC(=O)c2ccc(Br)cc2)N=C(c2ccccc2)c2ccccc21 : 8.60
3. CN1C(=O)[C@@H](NC(=O)c2ccc(Cl)cc2)N=C(c2ccccc2F)c2ccccc21 : 8.54
4. O=C(CNc1ccccc1)NC1N=C(c2ccccc2F)c2ccccc2NC1=O (stereo not drawn) : 7.05
5. O=C(NC1N=C(c2ccccc2F)c2ccccc2NC1=O)c1cc2cc(Cl)ccc2[nH]1 (stereo not drawn) : 7.00
6. CN1C(=O)C(NC(=O)c2ccc(C#N)cc2)N=C(c2ccccc2F)c2ccccc21 (stereo not drawn) : 7.37
7. CC1C(C(=O)NC2N=C(c3ccccc3F)c3ccccc3NC2=O)=Cc2ccccc21 (stereo not drawn) : 7.66
8. O=C(NC1N=C(c2ccccc2)c2ccccc2NC1=O)c1ccc(O)cc1 (stereo not drawn) : 5.75
9. CN1C(=O)C(NC(=O)c2ccc(I)cc2)N=C(c2ccccc2F)c2ccccc21 (stereo not drawn) : 9.10
10. O=C(NC1N=C(c2ccccc2)c2ccccc2NC1=O)c1cc2ccccc2[nH]1 (stereo not drawn) : 8.34
11. CN1C(=O)C(NC(=O)c2cccc(Br)c2)N=C(c2ccccc2F)c2ccccc21 (stereo not drawn) : 8.46
12. CN1C(=O)C(NC(=O)c2ccccc2I)N=C(c2ccccc2F)c2ccccc21 (stereo not drawn) : 6.10
13. CN1C(=O)C(NC(=O)c2ccc(C(F)(F)F)cc2)N=C(c2ccccc2)c2ccccc21 (stereo not drawn) : 8.89
